system: BaF3 FLT3 840G+S mutant cells; assay: MTT growth inhibition assay, BaF3 FLT3 840G+S cells; assay type: cell-based; conditions: Mus musculus, no IL-3, 48 h, read-out: Proliferation IC50
pIC50: −log10 of the molar value.
Measurement name: pIC50

compound="Cc1cc2ncc(-c3ccccc3)nc2cc1C [AG1295]" bound_operator== numeric_result=6.30
compound="Cc1ccc(C(=O)Nc2ccc(CN3CCN(C)CC3)c(C(F)(F)F)c2)cc1C#Cc1cnc2cccnn12 [Ponatinib]" bound_operator=> numeric_result=9.00
compound="C[C@]12O[C@H](C[C@]1(O)CO)n1c3ccccc3c3c4c(c5c6ccccc6n2c5c31)CNC4=O [Lestaurtinib]" bound_operator== numeric_result=8.10

Data provenance is paper PMC5355235.
